testedTarget: AEA-DA lipid probe targets in Neuro2a cells (Mus musculus)
Sequence (Q03517 31-617): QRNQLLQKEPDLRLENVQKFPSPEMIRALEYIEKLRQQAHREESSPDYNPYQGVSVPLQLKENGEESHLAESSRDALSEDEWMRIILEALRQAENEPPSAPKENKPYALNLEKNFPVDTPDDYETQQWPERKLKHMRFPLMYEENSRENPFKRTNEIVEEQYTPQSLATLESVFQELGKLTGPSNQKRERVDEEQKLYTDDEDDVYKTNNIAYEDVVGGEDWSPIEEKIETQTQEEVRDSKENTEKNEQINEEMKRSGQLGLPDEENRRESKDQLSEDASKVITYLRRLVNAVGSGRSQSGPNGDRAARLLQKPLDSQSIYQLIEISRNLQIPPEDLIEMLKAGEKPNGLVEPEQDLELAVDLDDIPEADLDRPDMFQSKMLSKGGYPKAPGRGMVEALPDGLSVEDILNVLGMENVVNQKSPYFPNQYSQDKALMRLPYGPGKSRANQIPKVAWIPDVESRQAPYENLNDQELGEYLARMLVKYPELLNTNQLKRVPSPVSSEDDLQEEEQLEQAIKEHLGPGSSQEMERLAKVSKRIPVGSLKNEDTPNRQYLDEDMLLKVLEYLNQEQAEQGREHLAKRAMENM
protocolConditions: competitor 25 μM
Attribute: SILAC ratio, Scg2
Answer with a number only.

molecule: O=C(/C=C/c1cccnc1)NCCCCC1CCN(C(=O)c2ccccc2)CC1 [FK-866, reference compound]
assayReadout: SILAC ratio, Scg2
measuredNumber: 1.0

The reported SILAC ratio, Scg2 of the molecule "CN1CCN(C(=O)c2c(-c3ccccc3)c3cc([N+](=O)[O-])ccc3n2C)CC1" was 1.4

The reported SILAC ratio, Scg2 of the molecule C=CCN(C)CCCCCCOc1ccc(C(=O)c2ccc(Br)cc2)c(F)c1 [Ro 48-8071, reference compound] was 1.1

The reported SILAC ratio, Scg2 of the molecule "CN1CCN(C(=O)c2[nH]c3ccc([N+](=O)[O-])cc3c2-c2ccccc2)CC1" was 1.5
